System: 266 human PDZ domains (PDZome)
method: Holdup assay (chromatographic retention, PDZome-binding profile, BI)
test-context: holdup, singlicate, threshold BI>0.20
*1 amine or outer side, *2 acyl side, *3 side chain or, on linkers, in order; H or OH if unused. Where a SMILES comes first, the peptide text is derived from it. The star is where a group is joined. X1 = O=C(CCCC[C@@H]1SC[C@@H]2NC(=O)N[C@@H]21)NCCCOCCOCCOCCCN*; Suc = O=C(CCC(=O)[*:2])[*:1]
readout-name: number of PDZ domains identified as potential binders (BI>0.20) (PDZ domains)
Record the value in PDZ domains, omitting the unit from your answer.

• CC[C@H](C)[C@H](NC(=O)[C@H](CCC(N)=O)NC(=O)[C@@H](NC(=O)[C@H](Cc1c[nH]cn1)NC(=O)[C@H](CCC(N)=O)NC(=O)[C@H](CC(=O)O)NC(=O)[C@H](CCC(=O)O)NC(=O)[C@H](CC(=O)O)NC(=O)CCC(=O)NCCCOCCOCCOCCCNC(=O)CCCC[C@@H]1SC[C@@H]2NC(=O)N[C@@H]21)[C@@H](C)O)C(=O)N[C@H](C(=O)N[C@@H](CCCCN)C(=O)N[C@H](C(=O)O)C(C)C)[C@@H](C)O = 19
• CC[C@H](C)[C@H](NC(=O)[C@H](CCC(N)=O)NC(=O)[C@@H](NC(=O)[C@H](Cc1c[nH]cn1)NC(=O)[C@H](CCC(N)=O)NC(=O)[C@H](CC(=O)O)NC(=O)[C@H](CCC(=O)O)NC(=O)[C@H](CC(=O)O)NC(=O)CCC(=O)NCCCOCCOCCOCCCNC(=O)CCCC[C@@H]1SC[C@@H]2NC(=O)N[C@@H]21)[C@@H](C)O)C(=O)N[C@H](C(=O)N[C@@H](CCCCNC(C)=O)C(=O)N[C@H](C(=O)O)C(C)C)[C@@H](C)O = 43
• CC[C@H](C)[C@H](NC(=O)[C@H](CCC(N)=O)NC(=O)[C@@H](NC(=O)[C@H](Cc1c[nH]cn1)NC(=O)[C@H](CCC(N)=O)NC(=O)[C@H](CC(=O)O)NC(=O)[C@H](CCC(=O)O)NC(=O)[C@H](CC(=O)O)NC(=O)[C@H](Cc1ccccc1)NC(=O)[C@@H]1CCCN1C(=O)CCC(=O)NCCCOCCOCCOCCCNC(=O)CCCC[C@@H]1SC[C@@H]2NC(=O)N[C@@H]21)[C@@H](C)O)C(=O)N[C@H](C(=O)N[C@@H](CCCCN)C(=O)N[C@H](C(=O)O)C(C)C)[C@@H](C)O [PTEN_13] ({X1-Suc}-PFDEDQHTQITKV-OH) = 24

Then there is this molecule:
Record CC[C@H](C)[C@H](NC(=O)[C@H](CCC(N)=O)NC(=O)[C@@H](NC(=O)[C@H](Cc1c[nH]cn1)NC(=O)[C@H](CCC(N)=O)NC(=O)[C@H](CC(=O)O)NC(=O)[C@H](CCC(=O)O)NC(=O)[C@H](CC(=O)O)NC(=O)CCC(=O)NCCCOCCOCCOCCCNC(=O)CCCC[C@@H]1SC[C@@H]2NC(=O)N[C@@H]21)[C@@H](C)O)C(=O)N[C@H](C(=O)N[C@@H](CCCNC(=N)N)C(=O)N[C@H](C(=O)O)C(C)C)[C@@H](C)O [PTEN_KR] ({X1-Suc}-DEDQHTQITRV-OH) / 266 human PDZ domains (PDZome), number of PDZ domains identified as potential binders (BI>0.20) recorded as 37
